- assay-method-text: Oral bioavailability in Sprague-Dawley rat at 1 mg/kg by LC-MS/MS analysis
- Format: ADME, organism-based
- reported-conditions: in vivo
readout-kind: bioavailability

| line-notation | test-value |
| --- | --- |
| COc1ccc(CN2CCC(c3ccc4[nH]c(C(=O)N5CCN(Cc6ccc(C(F)(F)F)cc6)CC5)nc4c3)CC2)cn1.Cc1ccc(S(=O)(=O)O)cc1.Cc1ccc(S(=O)(=O)O)cc1 | 80% |

Note: attention shifts to another entry.
Q. Bench note: what bioavailability did COc1ccc(CN2CCC(C(=O)Nc3ccc(C(=O)N4CCN(Cc5ccc(C(F)(F)F)cc5)CC4)cc3)CC2)cn1 show?
A. 11%

====

- assay-method-text: Tmax in Sprague-Dawley rat at 1 mg/kg, po by LC-MS/MS analysis
- Type: ADME, organism-based
- reported-conditions: in vivo
Please provide measured Tmax for the entries that follow.
Answers are plain numbers, in h.

| line-notation | Tmax, h |
| --- | --- |
| COc1ccc(CN2CCC(c3ccc4[nH]c(C(=O)N5CCN(Cc6ccc(C(F)(F)F)cc6)CC5)nc4c3)CC2)cn1.Cc1ccc(S(=O)(=O)O)cc1.Cc1ccc(S(=O)(=O)O)cc1 | 1.7 |

Q. Consider the molecule COc1ccc(CN2CCC(C(=O)Nc3ccc(C(=O)N4CCN(Cc5ccc(C(F)(F)F)cc5)CC4)cc3)CC2)cn1 and give its measured Tmax.
A. 0.5

====

- assay-method-text: Elimination half-life in Sprague-Dawley rat at 1 mg/kg, iv by LC-MS/MS analysis
- Format: ADME, organism-based
- reported-conditions: in vivo, read-out: beta t1/2 (converted)
Consider the following compounds; for each one, report its half-life.
Give bare numbers, in h.

| line-notation | half-life, h |
| --- | --- |
| COc1ccc(CN2CCC(c3ccc4[nH]c(C(=O)N5CCN(Cc6ccc(C(F)(F)F)cc6)CC5)nc4c3)CC2)cn1.Cc1ccc(S(=O)(=O)O)cc1.Cc1ccc(S(=O)(=O)O)cc1 | 3.6 |

# ---- query compound ----
Q. Entry COc1ccc(CN2CCC(C(=O)Nc3ccc(C(=O)N4CCN(Cc5ccc(C(F)(F)F)cc5)CC4)cc3)CC2)cn1 has what half-life?
A. 3.5

Source: ChEMBL document CHEMBL4627268
